TESTED TARGET: T1, CD28, endogenously expressed on Jurkat/IL2 reporter cells (human, UniProt P10747 19-220)
T1 construct: whole, on cells
ASSAY SUMMARY: flow cytometry, Jurkat/IL2 reporter cells (endogenous CD28); MFI against WT CD80 of the table
Recorded Fold change to WT CD80 values for a group of binders are listed next.
Return type: number; implicit unit fold.

Here are 4 binders together with their reported answers.
# BINDER, Fold change to WT CD80 (fold)
rows = [
    ("variant CD80 IgV-Fc H18Y/V22D/E35D/M47V/N48K/V68M (Fc fusion, not shown: small tags and cut ends; a dimerising Fc or GST) VIHVTKEVKEVATLSCGYNVSDEELAQTRIYWQKDKKMVLTMMSGDVKIWPEYKNRTIFDITNNLSIMILALRPSDEGTYECVVLKYEKDAFKREHLAEVTLSVKAD", 8.2),
    ("variant CD80 IgV-Fc E35D/T41S/D46E/M47I/V68M/K93R/E95V (Fc fusion, not shown: small tags and cut ends; a dimerising Fc or GST) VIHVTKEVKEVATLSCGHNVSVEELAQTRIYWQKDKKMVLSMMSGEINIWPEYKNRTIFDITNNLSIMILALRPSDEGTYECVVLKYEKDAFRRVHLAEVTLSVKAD", 15.2),
    ("variant CD80 IgV-Fc E35D/M43I/M47L/V68M (Fc fusion, not shown: small tags and cut ends; a dimerising Fc or GST) VIHVTKEVKEVATLSCGHNVSVEELAQTRIYWQKDKKMVLTMISGDLNIWPEYKNRTIFDITNNLSIMILALRPSDEGTYECVVLKYEKDAFKREHLAEVTLSVKAD", 48.3),
    ("variant CD80 IgV-Fc H18Y/E35D/V68M/T79M/L85M (Fc fusion, not shown: small tags and cut ends; a dimerising Fc or GST) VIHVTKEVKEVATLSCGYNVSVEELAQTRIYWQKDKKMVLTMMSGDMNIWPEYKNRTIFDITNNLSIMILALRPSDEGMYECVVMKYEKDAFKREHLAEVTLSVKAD", 33.2),
]

Problem: Fill blank: measured Fold change to WT CD80 of the binder variant CD80 IgV-Fc E35D/M47L/Y53F/V68M/A71G/K93R/E95V (Fc fusion, not shown: small tags and cut ends; a dimerising Fc or GST) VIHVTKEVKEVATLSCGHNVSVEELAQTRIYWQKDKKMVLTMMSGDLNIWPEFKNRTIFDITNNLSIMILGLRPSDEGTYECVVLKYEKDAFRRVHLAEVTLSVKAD is ____.
Result: 12.2
